# System: Crude diglycosidase
# measurement.protocol: Examination of pH in the conversion into isoflavone aglycons by diglycosidase using soybean materials
# Assay type: biochemical, Penicillium multicolor IAM7153
# details: pH4.8; heat treatment of enzyme: no; reaction time 6 h
value.type: Decomposition efficiency of glycitin family in defatted soybean (%)

(A) COc1cc2c(=O)c(-c3ccc(O)cc3)coc2cc1O
(B) COc1cc2c(=O)c(-c3ccc(O)cc3)coc2cc1O[C@@H]1O[C@H](COC(=O)CC(=O)O)[C@@H](O)[C@H](O)[C@H]1O
Exam item: Could you kindly indicate whether A or B has the higher Decomposition efficiency of glycitin family in defatted soybean value? Provide the label of your selected option as the answer.
Marked response: A
(A: 68.1%, B: 31.9%)
